The measured values listed here are drawn from patent US8513380B2.

biological target: fibrinogen fragment D (Homo sapiens, UniProt P02675+P02679); construct: Fibrinogen fragment D, comprising the C-terminal polymerization pockets of fibrinogen (i.e. D-domain) without the N-terminal knobs; purchased Enzyme Research Laboratories FIB3; test: SPR binding kinetics of knob 'A' peptides on immobilized fibrinogen fragment D; details: Langmuir 1:1 model; read-out: kd, dissociation rate
Sequence (P02679 89-432 limits assumed): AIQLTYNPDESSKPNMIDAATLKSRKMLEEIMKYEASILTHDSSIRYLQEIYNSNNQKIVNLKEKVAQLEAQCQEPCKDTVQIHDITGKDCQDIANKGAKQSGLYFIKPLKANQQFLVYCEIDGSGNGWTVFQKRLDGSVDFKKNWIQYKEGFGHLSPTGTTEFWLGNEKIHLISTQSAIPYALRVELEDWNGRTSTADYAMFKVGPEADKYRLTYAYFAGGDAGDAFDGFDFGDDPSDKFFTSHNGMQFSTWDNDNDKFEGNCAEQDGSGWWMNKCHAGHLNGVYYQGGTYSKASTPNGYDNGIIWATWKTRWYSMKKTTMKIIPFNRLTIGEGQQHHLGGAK
Sequence (P02675 164-491 limits assumed): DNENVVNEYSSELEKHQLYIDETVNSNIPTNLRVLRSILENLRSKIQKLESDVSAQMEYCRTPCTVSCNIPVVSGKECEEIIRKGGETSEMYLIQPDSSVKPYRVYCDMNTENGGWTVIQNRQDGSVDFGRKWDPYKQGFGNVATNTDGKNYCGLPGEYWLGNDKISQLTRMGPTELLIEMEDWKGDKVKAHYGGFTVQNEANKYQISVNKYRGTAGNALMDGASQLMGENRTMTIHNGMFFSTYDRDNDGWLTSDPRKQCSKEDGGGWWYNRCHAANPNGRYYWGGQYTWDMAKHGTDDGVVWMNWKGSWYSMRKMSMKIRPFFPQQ
Sequence (P02671 124-216 partner limits assumed): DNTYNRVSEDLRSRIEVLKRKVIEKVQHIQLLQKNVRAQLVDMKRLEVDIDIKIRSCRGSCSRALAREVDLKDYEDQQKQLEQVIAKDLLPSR
Where a SMILES comes first, the peptide text is derived from it.
reported metric: koff (s⁻¹)

a: CC(C)[C@H](NC(=O)[C@H](CCCNC(=N)N)NC(=O)[C@@H]1CCCN1C(=O)CN)C(=O)N[C@H](C(=O)N[C@@H](C)C(=O)N[C@@H](C)C(=O)N[C@@H](CS)C(=O)O)C(C)C [GPRVVAAC] (H-GPRVVAAC-OH)
b: C[C@H](NC(=O)[C@@H]1CCCN1C(=O)[C@H](Cc1ccccc1)NC(=O)[C@@H]1CCCN1C(=O)[C@H](CCCNC(=N)N)NC(=O)[C@@H]1CCCN1C(=O)CN)C(=O)N[C@@H](CS)C(=O)O [GPRPFPAC] (H-GPRPFPAC-OH)
c: CC(C)[C@H](NC(=O)[C@H](CCCNC(=N)N)NC(=O)[C@@H]1CCCN1C(=O)CN)C(=O)N[C@H](C(=O)N[C@@H](CCC(=O)O)C(=O)N[C@@H](CCCNC(=N)N)C(=O)N[C@@H](CS)C(=O)O)C(C)C [GPRVVERC] (H-GPRVVERC-OH)
Order the above molecules by increasing koff. Please express your ranking as an ordered list of the labels. b, a, c
(b: 0.00727 s⁻¹, a: 0.0107 s⁻¹, c: 0.0234 s⁻¹)
